Hello, the source for this data is paper PMC3328401, in case you need it.

# Experiment summary: Solubility in aqueous media
# Particulars: aqueous media / water
Reported property: solubility

{"columns": ["Compound", "Experimental value"],
 "data": [
  ["CC(C)(C)c1cc(C(C)(C)C)c2c(c1F)COP(=O)(OC[C@H]1O[C@@H](n3cc(I)c(=O)[nH]c3=O)C[C@@H]1F)O2 (stereo partly shown) [compound 24]", "lower water solubility"],
  ["CC(C)(C)c1cc(C(C)(C)C)c2c(c1F)COP(=O)(O[C@H]1C[C@H](n3cc(I)c(=O)[nH]c3=O)O[C@@H]1CO)O2 (stereo partly shown) [compound 14]", "lower water solubility"],
  ["CC(C)(C)c1cc(C(C)(C)C)c2c(c1F)COP(=O)(OC[C@H]1O[C@@H](n3cc(I)c(=O)[nH]c3=O)C[C@@H]1O)O2 (stereo partly shown) [compound 8]", "lower water solubility"]
]}

---

# Experiment summary: Chemical hydrolysis of cycloSal phosphate triesters in phosphate buffer
# Assay type: physicochemical
# Particulars: phosphate buffer 50 mM, pH 7.3, 37°C, ~15% acetonitrile
Measured k (rate of hydrolysis) of individual entries
Answer with a number only, understood to be in min⁻¹.

Would you please look over these solved cases?
{"columns": ["Molecule", "k (rate of hydrolysis), min⁻¹"],
 "data": [
  ["O=c1[nH]c(=O)n([C@H]2C[C@H](OP3(=O)OCc4ccccc4O3)[C@@H](CO)O2)cc1I (stereo partly shown) [12-slow]", 0.00164],
  ["Cc1cccc2c1OP(=O)(O[C@H]1C[C@H](n3cc(I)c(=O)[nH]c3=O)O[C@@H]1CO)OC2 (stereo partly shown) [13-slow]", 0.000813],
  ["Cc1cccc2c1OP(=O)(OC[C@H]1O[C@@H](n3cc([125I])c(=O)[nH]c3=O)C[C@@H]1O)OC2 (stereo partly shown) [7b-slow]", 0.000463]
]}

Continue with the molecule presented below.
Give the value of k (rate of hydrolysis) reported for the following: CC(C)(C)c1cc(C(C)(C)C)c2c(c1F)COP(=O)(OC[C@H]1O[C@@H](n3cc(I)c(=O)[nH]c3=O)C[C@@H]1O)O2 (stereo partly shown) [8-fast]
0.000241

---

# Test system: OVCAR-3 cells
# Experiment summary: Subcellular distribution of 125I-labeled reagents
# Assay type: cell-based, human
# Particulars: 1 h incubation, 55.5 kBq/mL
Reported property: ^125I in nucleus, 1 hour

Would you please look over these solved cases?
{"columns": ["Compound", "Experimental value"],
 "data": [
  ["CC(C)(C)c1cc(C(C)(C)C)c2c(c1F)COP(=O)(O[C@H]1C[C@H](n3cc([125I])c(=O)[nH]c3=O)O[C@@H]1CO)O2 (stereo partly shown) [14b]", "4.3 (0.3) cpm/10^3 cells (std dev)"],
  ["Cc1cccc2c1OP(=O)(O[C@H]1C[C@H](n3cc([125I])c(=O)[nH]c3=O)O[C@@H]1CO)OC2 (stereo partly shown) [13b]", "2.0 (0.2) cpm/10^3 cells (std dev)"],
  ["O=c1[nH]c(=O)n([C@H]2C[C@H](OP3(=O)OCc4ccccc4O3)[C@@H](COP3(=O)OCc4ccccc4O3)O2)cc1[125I] (stereo partly shown)", "6.4 (0.5) cpm/10^3 cells (std dev)"]
]}

Give ^125I in nucleus, 1 hour only, for O=c1[nH]c(=O)n([C@H]2C[C@H](O)[C@@H](COP3(=O)OCc4ccccc4O3)O2)cc1[125I] (stereo partly shown) [6b-slow] , using OVCAR-3 cells data.
4.9 (2.5) cpm/10^3 cells (std dev)
